# STUDY SYSTEM: T1, CD137-hisFc fusion protein (Sino Biological Cat 10041-H03H) (human, UniProt Q07011 24-186)
# T1 construct: Bought; also called recombinant human CD137 (fused with human Fc and His tag); not shown: His tag and human Fc
# EXPERIMENT NOTES: BLI Octet, Fab
READOUT TYPE: kon (M⁻¹ s⁻¹)
Please state the figure in M⁻¹ s⁻¹; there is no need to write the unit.

Answered examples (9):
| BINDER | kon / M⁻¹ s⁻¹ |
| --- | --- |
| Fab 5341 (Fab, V domains shown, Fab from E. coli; also called VH20/VL20) VH: EVQLVESGGGLVQPGGSLRLSCAASGYSITSGHHWAWIRQAPGKGLEWVSAISGDGSTTYYADSVKGRFTISRDNSKNTLYLQLNSLRAEDTAVYYCAREGSTAVTGDWFAYWGQGTLVTVSS VL: DIQLTQSPSSLSASVGDRVTITCSASSRVGYVHWYQQKPGKAPKLLIYDASSLESGVPSRFSGSGSGTDFTLTISSLQPEDFATYYCQQGYYTWTFGQGTKVEIKR | 64200 |
| Fab 5310 (Fab, V domains shown, Fab from E. coli; also called VH15/VL15) VH: EVQLVESGGGLVQPGGSLRLSCAASGFSLSTSGVGVGWIRQAPGKGLEWLALIDWDDDKYYSPSLKSRLTISRDNSKNTLYLQLNSLRAEDTAVYYCARGGSDTVLGDWFAYWGQGTLVTVSS VL: DIQLTQSPSSLSASVGDRVTITCRASQSVSPYLAWYQQKPGKAPKLLIYDASSLESGVPSRFSGSGSGTDFTLTISSLQPEDFATYYCQQGYSLWTFGQGTKVEIKR | 813000 |
| Fab 5407 (Fab, V domains shown, Fab from E. coli; also called VH35/VL35) VH: EVQLVESGGGLVQPGASLRLSCAASGFSLSTGGVGVAWIRQAPGKGLEWVSSISGYGSTTYYADSVKGRFTISRDNSKNTLYLQLNSLRAEDTAVYYCAREGSDAVLGDWFGYWGQGTLVTVSS VL: DIQLTQSPSSLSASVGDRVTITCQASQDITTYLAWYQQKPGKAPKLLIYDASNRATGIPSRFSGSGSGTDFTLTISSLQPEDFATYYCQQGYYLWTFGQGTKVEIKR | 248000 |
| Fab 7077 (Fab, V domains shown, Fab from E. coli; also called VH40/VL40) VH: EVQLVESGGGLVQPGGSLRLSCAASGFSLSTGGVGVAWIRQAPGKGLEWVSYISGSGDTTYYADSVKGRFTISRDNSKNTLYLQLNSLRAEDTAVYYCAREGSDTVVGDWFAYWGQGTLVTVSS VL: DIQLTQSPSSLSASVGDRVTITCRASQGISSYLAWYQQKPGKAPKLLIYDASNLETGVPSRFSGSGSGTDFTLTISSLQPEDFATYYCQQYYTTPLTFGQGTKVEIKR | 498000 |
| Fab 5300 (Fab, V domains shown, Fab from E. coli; also called VH12/VL12) VH: EVQLVESGGGLVQPGGSLRLSCAASGYTFSNYWIHWVRQAPGKGLEWVSYISGDGDTTYYADSVKGRFTISRDNSKNTLYLQLNSLRAEDTAVYYCAREGSTTVAGDWFAYWGQGTLVTVSS VL: DIQLTQSPSSLSASVGDRVTITCRASQGIGSFLGWYQQKPGKAPKLLIYDASSLESGVPSRFSGSGSGTDFTLTISSLQPEDFATYYCQQYYSLVTFGQGTKVEIKR | 596000 |
| Fab 5404 (Fab, V domains shown, Fab from E. coli; also called VH34/VL34) VH: EVQLVESGGGLVQPGGSLRLSCAASGYSISSGYHWAWIRQAPGKGLEWIGEIYHSGSTYYSPSLKSRVTISRDNSKNTLYLQLNSLRAEDTAVYYCARSPYYYGVFDYWGQGTLVTVSS VL: DIQLTQSPSSLSASVGDRVTITCSASSRVGSVYWYQQKPGKAPKLLIYDASNLETGVPSRFSGSGSGTDFTLTISSLQPEDFATYYCQQYTHDPVTFGQGTKVEIKR | 395000 |
| Fab 7159 (Fab, V domains shown, Fab from E. coli; also called VH58/VL58) VH: EVQLVESGGGLVQPGGSLRLSCAASGFSLSTSGVGVGWIRQAPGKGLEWIGDIYHSGSTYYNPSLKSRVTISRDNSKNTLYLQLNSLRAEDTAVYYCAREGSTAVLGDWFAYWGQGTLVTVSS VL: DIQLTQSPSSLSASVGDRVTITCRASQSISSYLNWYQQKPGKAPKLLIYAASTLQSGVPSRFSGSGSGTDFTLTISSLQPEDFATYYCQQYYSTPLTFGQGTKVEIKR | 106000 |
| Fab 5363 (Fab, V domains shown, Fab from E. coli; also called VH29/VL29) VH: EVQLVESGGGLVQPGGSLRLSCAASGYSISSGHYWTWIRQAPGKGLEWVSAISGSGSSTYYADSVKGRFTISRDNSKNTLYLQLNSLRAEDTAVYYCARGGSDAVLGDWFAYWGQGTLVTVSS VL: DIQLTQSPSSLSASVGDRVTITCRASQGVGSYLAWYQQKPGKAPKLLIYDASNLETGVPSRFSGSGSGTDFTLTISSLQPEDFATYYCQQGYQLWTFGQGTKVEIKR | 83700 |
| Fab 7133 (Fab, V domains shown, Fab from E. coli; also called VH56/VL56) VH: EVQLVESGGGLVQPGGSLRLSCAASGFSLSTSGVGVAWIRQAPGKGLEWVSSISGYGGTTYYADSVKGRFTISRDNSKNRLYLQLNSLRAEDTAVYYCAREGSDTVLGDWFAYWGQGTLVTVSS VL: DIQLTQSPSSLSASVGDRVTITCRASQGVSSYLAWYQQKPGKAPKLLIYDASNLETGVPSRFSGSGSGTDFTLTISSLQPEDFATYYCQQYYTTPLTFGQGTKVEIKR | 101000 |

Consider the additional binder presented here.
Recorded result, Fab 7090 (Fab, V domains shown, Fab from E. coli; also called VH47/VL47) VH: EVQLVESGGGLVQPGGSLRLSCAASGFSLSTGGVGVAWIRQAPGKGLEWVSYISGYGGTTYYADSVKGRFTISRDNSKNTLYLQLNSLRAEDTAVYYCAREGSTAVLGDWFAYWGQGTLVTVSS VL: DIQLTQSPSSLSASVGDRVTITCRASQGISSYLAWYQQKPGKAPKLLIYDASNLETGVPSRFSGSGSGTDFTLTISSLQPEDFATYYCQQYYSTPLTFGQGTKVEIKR , kon: 312000
